Kd values by entry
- system_tested: PKAcα (Homo sapiens)
- Construct: purchased Biaffin GmbH & Co KG (Kassel, Germany)
- assay_comment: Binding/displacement assay with FA or TGLI readout
- reported_conditions: TGLI or FA readout; mean ± SEM, N = 2; read-out: KD, nM (PKAcα)
Square brackets hold non-standard residues; d marks the D form. Peptide text beside a SMILES is read from it. * marks the point of attachment. X3 = O=C(CCCCCNCc1nc2c(sc3cc(Br)cnc32)c(=O)[nH]1)*

[
  {
    "compound": "CN(C)c1ccc2c(c1)Oc1cc(N(C)C)ccc1C21OC(=O)c2cc(C(=O)NCCCC[C@@H](NC(=O)[C@@H](CCCNC(=N)N)NC(=O)CNC(=O)[C@@H](CCCNC(=N)N)NC(=O)[C@@H](CCCNC(=N)N)NC(=O)CCCCc3cn(Cc4nc5c(sc6ccc(Br)cc65)c(=O)[nH]4)nn3)C(N)=O)ccc21",
    "Kd": "> 1020 nM"
  },
  {
    "compound": "CN1C(=CC=CC=CC2=[N+](CCCCCC(=O)NCCCC[C@@H](NC(=O)[C@@H](CCCNC(=N)N)NC(=O)CNC(=O)[C@@H](CCCNC(=N)N)NC(=O)[C@@H](CCCNC(=N)N)NC(=O)CCCCc3cn(Cc4nc5c(sc6ccc(Br)cc65)c(=O)[nH]4)nn3)C(N)=O)c3ccccc3C2(C)C)C(C)(C)c2ccccc21",
    "Kd": "> 1080 nM"
  },
  {
    "compound": "N=C(N)NCCC[C@@H](NC(=O)CNC(=O)[C@@H](CCCNC(=N)N)NC(=O)[C@@H](CCCNC(=N)N)NC(=O)Cn1cc(CNCc2nc3c(sc4ccc(Br)cc43)c(=O)[nH]2)nn1)C(=O)N[C@H](CCCCN)C(N)=O",
    "Kd": "1500 nM"
  },
  {
    "compound": "N=C(N)NCCC[C@@H](NC(=O)CNC(=O)[C@@H](CCCNC(=N)N)NC(=O)[C@@H](CCCNC(=N)N)NC(=O)CCCCc1cn(Cc2nc3c(sc4ccc(Br)cc43)c(=O)[nH]2)nn1)C(=O)N[C@H](CCCCN)C(N)=O",
    "Kd": "> 18200 nM"
  },
  {
    "compound": "N=C(N)NCCC[C@@H](NC(=O)CCCCCNCc1nc2c(sc3cc(Br)cnc32)c(=O)[nH]1)C(=O)N[C@H](CCCNC(=N)N)C(=O)N[C@H](CCCNC(=N)N)C(=O)N[C@H](CCCNC(=N)N)C(=O)N[C@H](CCCNC(=N)N)C(=O)N[C@H](CCCNC(=N)N)C(=O)N[C@H](CCCCN)C(N)=O [ARC-3126, BPTP-Ahx-(D-Arg)6-D-Lys-NH2] (X3-[dR][dR][dR][dR][dR][dR][dK]-NH2)",
    "Kd": "> 18500 nM"
  },
  {
    "compound": "N=C(N)NCCC[C@@H](N)C(=O)N[C@H](CCCNC(=N)N)C(=O)NCC(=O)N[C@H](CCCNC(=N)N)C(=O)N[C@H](CCCCN)C(N)=O [PIM peptide, (D-Arg)2-Gly-D-Arg-D-Lys-NH2]",
    "Kd": "> 89000 nM"
  },
  {
    "compound": "N=C(N)NCCC[C@@H](NC(=O)CNC(=O)[C@@H](CCCNC(=N)N)NC(=O)[C@@H](CCCNC(=N)N)NC(=O)CCCCCCCNC(=O)[C@@H]1C[C@@H](O)CN1Cc1nc2c(sc3ccc(Br)cc32)c(=O)[nH]1)C(=O)N[C@H](CCCCN)C(N)=O",
    "Kd": "> 20600 nM"
  }
]
